Procedure Summary: Toxicokinetic assessment of systemic exposure in minipigs following dermal administration
Type: in vivo
Condition Label: female, Göttingen, minipig, plasma, topical or ocular, 6 mg/kg/day, Median (Min-Max), Day 28, Female, 6 mg/kg/day, 0.3% gel
Method: Male and female göttingen minipigs were dosed daily for a period of 28 days in a GLP toxicity study with DMVT-503 gel at 0.1%, 0.3%, and 0.6%. DMVT-503 concentrations were quantitated using a validated LC-MS/MS method and toxicokinetic parameters were calculated for all dosing groups, sexes, and sampling occasions. The systemic exposures observed in this study are supportive of the effective delivery of DMVT-503 into and through minipig skin by the gel formulations tested. […]
Metric Name: Tmax (h)
Record the value in h, omitting the unit from your answer.

Query string: Provide Tmax value for the following molecule: Cc1nc(C)c(-c2ccc([C@H]3CC[C@H](CC(=O)O)CC3)cc2)nc1C(N)=O [DMVT-503]
Result string: 0

----------
Procedure Summary: Toxicokinetic assessment of systemic exposure in minipigs following dermal administration
Format: in vivo
Condition Label: male, Göttingen, minipig, plasma, topical or ocular, 6 mg/kg/day, Day 1, Male, 6 mg/kg/day, 0.3% gel
Metric Name: Cmax (ng/mL)
Record the value in ng/mL, omitting the unit from your answer.

Query string: Provide Cmax value for the following compound: Cc1nc(C)c(-c2ccc([C@H]3CC[C@H](CC(=O)O)CC3)cc2)nc1C(N)=O [DMVT-503]
Result string: 53

----------
Procedure Summary: Toxicokinetic assessment of systemic exposure in minipigs following dermal administration
Type: in vivo
Condition Label: female, Göttingen, minipig, plasma, topical or ocular, 12 mg/kg/day, Day 1, Female, 12 mg/kg/day, 0.6% gel
Metric Name: Cmax (ng/mL)
Record the value in ng/mL, omitting the unit from your answer.

Query string: Provide Cmax value for the following molecule: Cc1nc(C)c(-c2ccc([C@H]3CC[C@H](CC(=O)O)CC3)cc2)nc1C(N)=O
Result string: 171

----------
Procedure Summary: Toxicokinetic assessment of systemic exposure in minipigs following dermal administration
Type: in vivo
Condition Label: male, Göttingen, minipig, plasma, topical or ocular, 2 mg/kg/day, Day 28, Male, 2 mg/kg/day, 0.1% gel
Description: Male and female göttingen minipigs were dosed daily for a period of 28 days in a GLP toxicity study with DMVT-503 gel at 0.1%, 0.3%, and 0.6%. DMVT-503 concentrations were quantitated using a validated LC-MS/MS method and toxicokinetic parameters were calculated for all dosing groups, sexes, and sampling occasions. The systemic exposures observed in this study are supportive of the effective delivery of DMVT-503 into and through minipig skin by the gel formulations tested. […]
Metric Name: Cmax (µg/mL)
Record the value in µg/mL, omitting the unit from your answer.

Query string: Provide Cmax value for the following compound: Cc1nc(C)c(-c2ccc([C@H]3CC[C@H](CC(=O)O)CC3)cc2)nc1C(N)=O
Result string: 0.0196

----------
Procedure Summary: Toxicokinetic assessment of systemic exposure in minipigs following dermal administration
Format: in vivo
Condition Label: female, Göttingen, minipig, plasma, topical or ocular, 12 mg/kg/day, Day 1, Female, 12 mg/kg/day, 0.6% gel, read-out: AUC0-24
Procedure: Male and female göttingen minipigs were dosed daily for a period of 28 days in a GLP toxicity study with DMVT-503 gel at 0.1%, 0.3%, and 0.6%. DMVT-503 concentrations were quantitated using a validated LC-MS/MS method and toxicokinetic parameters were calculated for all dosing groups, sexes, and sampling occasions. The systemic exposures observed in this study are supportive of the effective delivery of DMVT-503 into and through minipig skin by the gel formulations tested. […]
Metric Name: AUC(0-t)

Query string: Provide AUC(0-t) value for the following compound: Cc1nc(C)c(-c2ccc([C@H]3CC[C@H](CC(=O)O)CC3)cc2)nc1C(N)=O [DMVT-503]
Result string: 1490 ng·h/mL

----------
Procedure Summary: Toxicokinetic assessment of systemic exposure in minipigs following dermal administration
Assay type: in vivo
Condition Label: female, Göttingen, minipig, plasma, topical or ocular, 6 mg/kg/day, Day 1, Female, 6 mg/kg/day, 0.3% gel, read-out: AUC0-24
Metric Name: AUC(0-t) (ng·h/mL)
Record the value in ng·h/mL, omitting the unit from your answer.

Query string: Provide AUC(0-t) value for the following compound: Cc1nc(C)c(-c2ccc([C@H]3CC[C@H](CC(=O)O)CC3)cc2)nc1C(N)=O [DMVT-503]
Result string: 1750

----------
Procedure Summary: Toxicokinetic assessment of systemic exposure in minipigs following dermal administration
Assay type: in vivo
Condition Label: male, Göttingen, minipig, plasma, topical or ocular, 2 mg/kg/day, Median (Min-Max), Day 1, Male, 2 mg/kg/day, 0.1% gel
Metric Name: Tmax (h)
Record the value in h, omitting the unit from your answer.

Query string: Provide Tmax value for the following compound: Cc1nc(C)c(-c2ccc([C@H]3CC[C@H](CC(=O)O)CC3)cc2)nc1C(N)=O
Result string: 24

----------
Procedure Summary: Toxicokinetic assessment of systemic exposure in minipigs following dermal administration
Format: in vivo
Condition Label: female, Göttingen, minipig, plasma, topical or ocular, 2 mg/kg/day, Day 28, Female, 2 mg/kg/day, 0.1% gel
Metric Name: Cmax (ng/mL)
Record the value in ng/mL, omitting the unit from your answer.

Query string: Provide Cmax value for the following compound: Cc1nc(C)c(-c2ccc([C@H]3CC[C@H](CC(=O)O)CC3)cc2)nc1C(N)=O
Result string: 193

----------
Tested on: Human immortalized sebocytes
Procedure Summary: 14C-Acetate Sebocyte Lipid Accumulation Assay
Assay type: cell-based
Condition Label: Homo sapiens; day 2; 16 hour treatment with 1 μM T0901317, then 1 μM insulin for 4 hours
Metric Name: pIC50
// returns pIC50 (minus log10 of molar concentration), number only

Query string: Provide pIC50 value for the following compound: Cc1nc(C)c(-c2ccc([C@H]3CC[C@H](CC(=O)O)CC3)cc2)nc1C(N)=O
Result string: 7.30

----------
Procedure Summary: Toxicokinetic assessment of systemic exposure in minipigs following dermal administration
Assay type: in vivo
Condition Label: female, Göttingen, minipig, plasma, topical or ocular, 12 mg/kg/day, Median (Min-Max), Day 1, Female, 12 mg/kg/day, 0.6% gel
Metric Name: Tmax (h)
Record the value in h, omitting the unit from your answer.

Query string: Provide Tmax value for the following compound: Cc1nc(C)c(-c2ccc([C@H]3CC[C@H](CC(=O)O)CC3)cc2)nc1C(N)=O [DMVT-503]
Result string: 24

----------
Procedure Summary: Toxicokinetic assessment of systemic exposure in minipigs following dermal administration
Format: in vivo
Condition Label: male, Göttingen, minipig, plasma, topical or ocular, 6 mg/kg/day, Day 28, Male, 6 mg/kg/day, 0.3% gel
Metric Name: Cmax (ng/mL)
Record the value in ng/mL, omitting the unit from your answer.

Query string: Provide Cmax value for the following compound: Cc1nc(C)c(-c2ccc([C@H]3CC[C@H](CC(=O)O)CC3)cc2)nc1C(N)=O [DMVT-503]
Result string: 940

----------
Procedure Summary: Toxicokinetic assessment of systemic exposure in minipigs following dermal administration
Format: in vivo
Condition Label: male, Göttingen, minipig, plasma, topical or ocular, 2 mg/kg/day, Day 28, Male, 2 mg/kg/day, 0.1% gel, read-out: AUC0-24
Metric Name: AUC(0-t)
Could you give the number and then its unit, please?

Query string: Provide AUC(0-t) value for the following compound: Cc1nc(C)c(-c2ccc([C@H]3CC[C@H](CC(=O)O)CC3)cc2)nc1C(N)=O [DMVT-503]
Result string: 3970 ng·h/mL

----------
Procedure Summary: Toxicokinetic assessment of systemic exposure in minipigs following dermal administration
Type: in vivo
Condition Label: female, Göttingen, minipig, plasma, topical or ocular, 2 mg/kg/day, Median (Min-Max), Day 1, Female, 2 mg/kg/day, 0.1% gel
Metric Name: Tmax (h)
Record the value in h, omitting the unit from your answer.

Query string: Provide Tmax value for the following compound: Cc1nc(C)c(-c2ccc([C@H]3CC[C@H](CC(=O)O)CC3)cc2)nc1C(N)=O
Result string: 24

----------
Procedure Summary: Toxicokinetic assessment of systemic exposure in minipigs following dermal administration
Format: in vivo
Condition Label: female, Göttingen, minipig, plasma, topical or ocular, 6 mg/kg/day, Day 28, Female, 6 mg/kg/day, 0.3% gel, read-out: AUC0-24
Metric Name: AUC(0-t) (ng·h/mL)
Record the value in ng·h/mL, omitting the unit from your answer.

Query string: Provide AUC(0-t) value for the following molecule: Cc1nc(C)c(-c2ccc([C@H]3CC[C@H](CC(=O)O)CC3)cc2)nc1C(N)=O
Result string: 8660

----------
System: human sebocyte cell line
Procedure Summary: Nile Red Neutral Lipid Accumulation Assay
Assay type: cell-based
Condition Label: day 3 of treatment; with 1 μM T0901317 and 1 μM insulin
Metric Name: IC50 (µM)
Record the value in µM, omitting the unit from your answer.

Query string: Check human sebocyte cell line data and give IC50 for CC1=C(/C=C/C(C)=C/C=C/C(C)=C\C(=O)O)C(C)(C)CCC1 [Mix 13-cis-RA, 13-cis-retinoic Acid, reference compound] .
Result string: 0.829
